Molecular target: CCR-3 receptor (Homo sapiens, UniProt P51677)
Sequence (P51677 1-355): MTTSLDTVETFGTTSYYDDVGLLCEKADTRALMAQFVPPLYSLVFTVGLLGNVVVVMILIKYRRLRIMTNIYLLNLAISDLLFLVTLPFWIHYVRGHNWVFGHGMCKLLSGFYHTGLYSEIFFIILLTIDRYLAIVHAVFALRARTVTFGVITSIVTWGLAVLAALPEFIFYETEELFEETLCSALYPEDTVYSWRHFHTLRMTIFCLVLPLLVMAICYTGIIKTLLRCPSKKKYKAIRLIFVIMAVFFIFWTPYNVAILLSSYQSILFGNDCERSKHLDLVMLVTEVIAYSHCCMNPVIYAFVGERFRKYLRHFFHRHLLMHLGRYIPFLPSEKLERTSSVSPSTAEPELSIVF
reportedEndpoint: IC50 (nM)

[1] Cc1c(CN2CC3CCC2CC3Cc2ccc(Cl)c(Cl)c2)c(=O)n(-c2ccccc2)n1C (centres unmarked)
[2] Cc1c(CN2C3CCC2CC(Cc2ccc(Cl)c(Cl)c2)C3)c(=O)n(-c2ccccc2)n1C (centres unmarked)
Recorded IC50 values differ for 1 and 2 ; which one is higher? Lab log: write the label of the selected item as the result. 2
(2: 965 nM, 1: 331 nM)
